# System: P388 leukemia ip, CD2F1 mice, survival T/C
# Test Summary: NCI In Vivo Anticancer Drug Screen. Data for tumor model P388 Leukemia (intraperitoneal) in CD2F1 (CDF1) mice
# Particulars: endpoint: median survival time; dose: 400.0 mg/kg/injection; schedule: Q04DX002 (ip); vehicle: saline with Tween-80; higher = longer survival
Inconclusive results and toxic doses are left out.
Measured Quantity: T/C

Provide the documented T/C with P388 leukemia ip, CD2F1 mice, survival T/C as the system for S=c1ncnc2c1ccc1[nH][nH]cc12
107 % of control

How about c1ccc(CSC2=NCCCC2)cc1 ?
100 % of control

Consider next the molecule CCOC(=O)C1C(=O)N2C(=O)C(NC(C)=O)=C(O)C2C1c1ccc(OC)cc1 (stereo not drawn) in the same way.
98 % of control

Another molecule to look at: O=c1[nH]c(-c2ccc(O)cc2)cc2ccccc12
100 % of control

Cool, now CN(C)C1(c2ccc3ccccc3c2)CS(=O)(=O)C1
92 % of control

// repeat for NC(=Nc1ccccc1)N(c1ccccc1)c1nc(=S)ss1 and report
87 % of control

What do we get for CC(=O)Oc1c(C)c(OC(C)=O)c2c(c1C(C)=O)OC1=CC(O)=C(C(C)=O)C(=O)C12C (stereo not drawn) ?
101 % of control

O=C(O)c1cc(Nc2ccnc3cc(Cl)ccc23)ccc1O ?
98 % of control
